experimental-target: Sigma intracellular receptor 2 (Homo sapiens, UniProt Q5BJF2)
Sequence (Q5BJF2 whole entry): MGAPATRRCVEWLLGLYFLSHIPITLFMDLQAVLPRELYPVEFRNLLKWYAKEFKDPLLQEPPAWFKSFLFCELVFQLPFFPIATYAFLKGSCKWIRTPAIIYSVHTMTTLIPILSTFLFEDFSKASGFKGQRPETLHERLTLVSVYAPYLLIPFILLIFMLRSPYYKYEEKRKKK
method: GPCRScan assay: inhibition of Sigma 2
Set-up: radioligand conc. used [nm] 5.0, parental cells HEKT
Below, each of the molecules is paired with its reported pKi value.
On this scale, pKi is minus log10 of a concentration expressed in M (mol/L).

{"compound-string": "O=C(Nc1ccc(Oc2ccc(F)cc2)cc1)N1CCc2ncccc2[C@H]1c1ccc(F)cc1", "reported-result": 6.17}

Consider the additional molecule presented here.
Per the reported Sigma intracellular receptor 2 (Homo sapiens, UniProt Q5BJF2) data, O=C(Nc1cnc(Oc2ccc(F)cc2)nc1)N1CCc2ncccc2[C@@H]1c1ccc(F)cc1 has pKi of 5.69

* * *

experimental-target: 5-hydroxytryptamine receptor 2B (Homo sapiens)
Sequence (P41595 whole entry): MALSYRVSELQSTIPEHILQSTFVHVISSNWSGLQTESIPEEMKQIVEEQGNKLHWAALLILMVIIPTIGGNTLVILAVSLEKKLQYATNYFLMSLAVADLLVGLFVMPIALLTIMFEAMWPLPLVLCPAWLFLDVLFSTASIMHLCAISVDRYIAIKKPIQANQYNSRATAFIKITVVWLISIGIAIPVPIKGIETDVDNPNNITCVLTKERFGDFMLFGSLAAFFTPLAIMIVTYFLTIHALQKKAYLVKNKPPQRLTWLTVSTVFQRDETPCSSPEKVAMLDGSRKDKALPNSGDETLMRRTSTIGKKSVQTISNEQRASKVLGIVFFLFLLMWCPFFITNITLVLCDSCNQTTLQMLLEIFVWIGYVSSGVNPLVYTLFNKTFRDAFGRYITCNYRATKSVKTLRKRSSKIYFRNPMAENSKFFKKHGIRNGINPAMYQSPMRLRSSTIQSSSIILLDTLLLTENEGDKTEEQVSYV
assay-metric: pKi
On this scale, pKi is minus log10 of a concentration expressed in M (mol/L).

Item: O=C(Nc1ccc(Oc2ccc(F)cc2)cc1)N1CCc2ncccc2[C@H]1c1ccc(F)cc1 | pKi: 5.28

* * *

Below, each of the compounds is paired with its reported Ki value.
experimental-target: Sigma non-opioid intracellular receptor 1 (Homo sapiens, UniProt Q99720)
Sequence (Q99720 whole entry): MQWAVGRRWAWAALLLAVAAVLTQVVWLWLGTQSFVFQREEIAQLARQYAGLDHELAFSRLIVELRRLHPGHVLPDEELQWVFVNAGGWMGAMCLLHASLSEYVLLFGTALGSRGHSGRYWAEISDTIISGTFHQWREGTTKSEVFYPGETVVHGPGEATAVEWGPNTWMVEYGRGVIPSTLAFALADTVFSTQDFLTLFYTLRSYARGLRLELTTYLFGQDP
method: GPCRScan assay: inhibition of Sigma 1
Use µM as the unit, but write only the number.

{"compound-string": "O=C(Nc1ccc(Oc2ccc(F)cc2)cc1)N1CCc2ncccc2[C@H]1c1ccc(F)cc1", "Ki, µM": 2.4}

Consider the additional compound presented here.
Item: O=C(Nc1cnc(Oc2ccc(F)cc2)nc1)N1CCc2ncccc2[C@@H]1c1ccc(F)cc1 | Ki: 1.43

* * *

Target sequence: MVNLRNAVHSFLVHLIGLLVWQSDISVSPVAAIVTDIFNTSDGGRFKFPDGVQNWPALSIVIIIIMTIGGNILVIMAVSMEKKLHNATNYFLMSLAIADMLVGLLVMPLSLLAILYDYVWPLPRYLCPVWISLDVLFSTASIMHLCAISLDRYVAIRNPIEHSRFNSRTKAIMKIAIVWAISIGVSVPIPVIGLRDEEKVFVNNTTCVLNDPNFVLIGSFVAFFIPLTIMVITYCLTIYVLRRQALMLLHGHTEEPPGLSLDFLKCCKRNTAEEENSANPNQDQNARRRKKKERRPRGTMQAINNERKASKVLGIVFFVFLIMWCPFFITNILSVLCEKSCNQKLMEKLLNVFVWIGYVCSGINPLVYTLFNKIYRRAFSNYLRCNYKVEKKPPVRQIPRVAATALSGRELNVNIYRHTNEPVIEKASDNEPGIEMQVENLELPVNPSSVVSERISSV
assay-metric: Ki (nM)
Use nM as the unit, but write only the number.

Item: O=C(Nc1ccc(Oc2ccc(F)cc2)cc1)N1CCc2ncccc2[C@H]1c1ccc(F)cc1 | Ki: 1080
